Test system: PPARg:RXRa 270nM:90nM, anti-RXR (NR concentration 270 nM, RXRa partner concentration 90 nM)
Run description: PBM binding z-score (relative to random genomic background probes); higher = stronger binding; sequences stand for … in GC…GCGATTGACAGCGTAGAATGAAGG
Use 5 as the dividing line for PBM binding z-score, with the line itself on the yes (1) side and lower values as no (0).

Below are worked cases with known answers.
1. ACTATTAGTTGACTTAGGGGAACCGATACGACGC	no (0)
2. CCGAGTAGGTTATGGGCCATTCAGGCAACGGTGA	no (0)
3. CAAACTAGGTCACCGGAGGGTCAAAGTCCGCATG	yes (1)

*Q* Decide: is the reported value of PBM binding z-score for TCAGACAGGTGAACGTAACTCAGGTACGCAGTCG equal to or greater than 5?
*A* no (0)

*Q* Decide: is the reported value of PBM binding z-score for ACTTACGGGTCAACGAGGTTATAGCACGCGTATA equal to or greater than 5?
*A* yes (1)

*Q* Decide: is the reported value of PBM binding z-score for CATACAGGGTCAGCTGGGCCAGAGTAGGGACGGC equal to or greater than 5?
*A* no (0)

*Q* Decide: is the reported value of PBM binding z-score for CCTAGCAGGCCAATCTTGGTCACTCAAGGCTTGA equal to or greater than 5?
*A* no (0)

----------
Test system: LXRb:RXRa (NR concentration 270 nM, RXRa partner concentration 90 nM)
Run description: PBM binding z-score (relative to random genomic background probes); higher = stronger binding; sequences stand for … in GC…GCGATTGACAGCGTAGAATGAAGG
Here, each record is paired with measured PBM binding z-score data.
Give the figure by itself; no unit, no explanation.

As a guide, the following entries are already answered.
1. TCTAGTTGGTCAAAGGTGACACACTCGAAATGCG	2.08
2. TTAATGAGGTTAAAGATCAGGGAACGTGGCGTCG	2.28
3. CGTCCAAAGTCAGAGAGGTCAGTGAATGCCGAGT	1.98
4. CGAACTAGGTCAAGGACATTGAATCTCCGCACGC	1.68
5. TCGAGTAGGCTAGTCGGGGCATTCAGCCAACATA	-0.579
6. TAGCCTAGCTCATGCGGGCCAGTATAGTGTCGGC	-1.4

Fill in: LXRb:RXRa (NR concentration 270 nM, RXRa partner concentration 90 nM) PBM binding z-score for TCTTGTAGATCAACAGGTTAAGAAAGCTGGCCAA = 0.757

Fill in: LXRb:RXRa (NR concentration 270 nM, RXRa partner concentration 90 nM) PBM binding z-score for CCTATTAGTTGACCATACGGGCAACCGAAGCTCG = 0.323

----------
System: RARb homodimer (NR concentration 270 nM)
Run description: PBM binding z-score (relative to random genomic background probes); higher = stronger binding; sequences stand for … in GC…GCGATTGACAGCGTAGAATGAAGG
Here, each record is paired with measured PBM binding z-score data.
Give the figure by itself; no unit, no explanation.

1. CCAGACAGGGGAGAAGGTAACTCAGCCTCGATTA	-0.0846
2. TAGCCTAAGTCAGATCGGGCCAGTATACGCTATA	-0.342
3. TCTTGTAGATCAAGCAGGTTCAGAAAGCCTGAGT	-0.055
4. CGAACGAGGGCATGAGTTGATATCAAATGCCGAT	0.794
5. ATATATAGGTTACATCCGGGTCATTCAGGCTATG	3.34

Now consider the entry below.
Recorded result, ATCTCTAGGTAAGACTCAGTTCAGTGATGAACGC , PBM binding z-score: 0.637

Where these numbers come from: the supplement of paper PMC6555819
